Sourced from patent US8772480B2

System: ProfilerPro Kinase Selectivity Assay Kit kinases
Assay type: biochemical
Conditions: CAMK2; 1 μM compound concentration
Answer each item with its documented POC (Percent of control) CAMK2.
# include the unit after the value

Previously resolved entries follow.
>>> observed_value("Cc1nc(N)nc(-c2cccnc2Nc2cccc3[nH]ccc23)n1")
"118 POC"
>>> observed_value("c1cnc(Nc2cccc3[nH]ccc23)c(-c2ncnc3[nH]cnc23)c1")
"84 POC"
>>> observed_value("Cc1nc(N)nc(-c2cc(CN3CCN(S(C)(=O)=O)CC3)cnc2Nc2cccc(O)c2)n1")
"103 POC"
>>> observed_value("c1cnc(Nc2cccc3[nH]ncc23)c(-c2ncnc3[nH]cnc23)c1")
"90 POC"

Provide reported POC (Percent of control) CAMK2 for each item, in the same order as listed.
1. Cc1nc(N)nc(-c2cccnc2Nc2cccc(O)c2)n1
2. Cc1cnc(Nc2cccc3[nH]ncc23)c(-c2nc(C)nc(N)n2)c1
3. Cc1nc(-c2cccnc2Nc2cccc3[nH]ncc23)c2nc[nH]c2n1

[A]
["108 POC", "126 POC", "109 POC"]

Provide reported POC (Percent of control) CAMK2 for each item, in the same order as listed.
1. COc1ccc(Nc2ncc(Cc3ccc(S(C)(=O)=O)cc3)cc2-c2nc(C)nc3[nH]cnc23)cn1
2. Cc1nc(N)cc(-c2cccnc2Nc2cccc3[nH]ncc23)n1
3. CCc1cnc(Nc2ccc(OC)nc2)c(-c2nc(C)nc3[nH]cnc23)c1
4. COc1ccc(Nc2ncccc2-c2nc(C)nc3[nH]cnc23)cn1
5. COc1ccc(Nc2ncccc2-c2ncnc3[nH]cnc23)cn1
6. Cc1cnc(Nc2cccc3[nH]ccc23)c(-c2nc(C)nc(N)n2)c1
7. COc1ccc(Nc2ncc(CN3CCN(C(C)=O)CC3)cc2-c2nc(C)nc3[nH]cnc23)cn1

[A]
1. 95 POC
2. 116 POC
3. 106 POC
4. 103 POC
5. 111 POC
6. 105 POC
7. 108 POC
